# testedOn: CB1 receptor (Homo sapiens)
# Sequence (P21554 whole entry): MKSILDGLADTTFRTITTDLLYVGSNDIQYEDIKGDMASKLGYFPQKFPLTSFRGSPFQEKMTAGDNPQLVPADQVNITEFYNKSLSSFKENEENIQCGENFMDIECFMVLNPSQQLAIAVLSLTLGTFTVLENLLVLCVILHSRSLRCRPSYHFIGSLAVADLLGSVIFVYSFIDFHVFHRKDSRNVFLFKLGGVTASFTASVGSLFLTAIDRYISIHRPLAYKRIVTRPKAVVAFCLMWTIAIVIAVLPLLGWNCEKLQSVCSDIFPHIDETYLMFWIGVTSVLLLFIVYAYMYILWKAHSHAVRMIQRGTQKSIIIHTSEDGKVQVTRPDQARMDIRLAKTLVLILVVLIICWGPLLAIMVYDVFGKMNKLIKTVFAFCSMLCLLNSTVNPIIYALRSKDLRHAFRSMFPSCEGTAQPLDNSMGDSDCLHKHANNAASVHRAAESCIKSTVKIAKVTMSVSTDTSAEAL
# Assay type: binding
pKi: −log10 of the molar value.
measuredParameter: pKi

{"columns": ["molecule", "measuredParameter", "measValue"],
 "data": [
  ["COc1ccc(-c2c(C#N)c(C(=O)NN3CCCCC3)nn2-c2ccc(Cl)cc2Cl)cc1 [^11C-OMAR]", "pKi", 8.69]
]}
